Fold IC50 pH 7.4 (Variant v Par0067) values, listed per item
target: T1, recombinant biotinylated human PAR2 extracellular domain (residues 1-75), N-terminal AviTag, C-terminal Flag … (human, UniProt P55085 26-75, biotin on the AviTag (enzymatic biotinylation)); test: HTRF competition with Par0067 IgG, scFv
T1 construct: also called Bio-human-PAR2 ECD; human PAR2 ECD; not shown: N-terminal AviTag (Avidity LLC); C-terminal Flag and poly Histidine tags
T1 sequence (P55085 26-75): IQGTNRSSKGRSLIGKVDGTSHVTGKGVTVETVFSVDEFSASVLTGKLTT
State the answer as a number, implicitly in fold.

BINDER	UNIT	Fold IC50 pH 7.4 (Variant v Par0067)
PaB670068 scFv (scFv, V domains shown, purified scFv; also called ZZ1KXE-B01) VH: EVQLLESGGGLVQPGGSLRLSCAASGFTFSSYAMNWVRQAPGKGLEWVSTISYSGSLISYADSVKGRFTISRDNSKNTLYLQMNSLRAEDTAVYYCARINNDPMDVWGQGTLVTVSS VL: SIELTQPPSVSVSPGQTASITCSGDNLGKKYVQWYQQKPGQSPVLVIYDDSNRPSGIPERFSGSNSGNTATLTISGTQAMDEADYYCQTWDGHHTHGEHHVFGGGTKLTVL	fold	23.6

From here, focus on the item given below.
Please fill in: Fold IC50 pH 7.4 (Variant v Par0067) reported for PaB670034 scFv (scFv, V domains shown, purified scFv; also called ZZ1IGF-B11) VH: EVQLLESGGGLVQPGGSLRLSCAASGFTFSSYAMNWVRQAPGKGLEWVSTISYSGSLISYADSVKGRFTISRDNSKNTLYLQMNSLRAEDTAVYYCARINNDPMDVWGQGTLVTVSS VL: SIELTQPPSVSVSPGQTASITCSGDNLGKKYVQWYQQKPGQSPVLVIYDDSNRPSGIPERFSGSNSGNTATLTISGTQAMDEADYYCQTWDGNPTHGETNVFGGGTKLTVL = 1.7
